Taken from ChEMBL document CHEMBL1212703.

# Tested on: Receptor-interacting serine/threonine-protein kinase 1 (Homo sapiens), Q13546 [K45M]
# Sequence (Q13546 whole entry K45M): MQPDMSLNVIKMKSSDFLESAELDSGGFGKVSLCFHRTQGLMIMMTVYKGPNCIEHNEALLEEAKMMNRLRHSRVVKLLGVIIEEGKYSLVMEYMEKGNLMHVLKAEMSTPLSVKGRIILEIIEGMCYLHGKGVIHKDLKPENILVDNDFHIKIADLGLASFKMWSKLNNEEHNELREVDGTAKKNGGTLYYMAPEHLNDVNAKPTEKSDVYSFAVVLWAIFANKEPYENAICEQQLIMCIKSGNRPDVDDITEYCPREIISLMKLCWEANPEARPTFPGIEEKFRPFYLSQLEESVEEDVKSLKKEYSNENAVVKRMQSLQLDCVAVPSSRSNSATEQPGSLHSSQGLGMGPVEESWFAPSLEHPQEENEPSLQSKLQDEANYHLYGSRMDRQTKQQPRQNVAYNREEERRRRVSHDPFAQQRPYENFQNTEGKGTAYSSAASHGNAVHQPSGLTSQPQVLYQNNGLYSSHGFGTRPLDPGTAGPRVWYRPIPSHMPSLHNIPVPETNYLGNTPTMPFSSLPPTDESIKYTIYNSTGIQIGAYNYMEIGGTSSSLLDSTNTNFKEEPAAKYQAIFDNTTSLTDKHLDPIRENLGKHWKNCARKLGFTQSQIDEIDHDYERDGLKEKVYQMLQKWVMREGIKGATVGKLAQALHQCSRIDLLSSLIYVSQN
# Protocol notes: Inhibition of human RIP1 K45M mutant autophosphorylation expressed in Sf9 cells
Active and inactive are the calls of the source. The rule behind the calls is not given here.
Reported property: inhibition

>>> result_value("O=C1NC(=S)NC1Cc1c[nH]c2ccccc12 (centres undefined)")
"inactive"
>>> result_value("COc1ccc(-n2c(SCC#N)nc3sc4c(c3c2=O)CCCC4)cc1")
"inactive"
>>> result_value("CN1C(=O)C(Cc2c[nH]c3ccccc23)NC1=S (centres undefined) [NECROSTATIN]")
"Active"
>>> result_value("COc1ccc([C@H]2[C@H]3CCc4ccccc4C3=NN2C(C)=O)cc1")
"Active"

---

# Measured target: Receptor-interacting serine/threonine-protein kinase 1 (Homo sapiens, UniProt Q13546)
# Sequence (Q13546 whole entry): as the sequence (Q13546 whole entry K45M) above, with M45K counted along it
# Protocol notes: Inhibition of endogenous RIP1 autophosphorylation in human Jurkat cells
pEC50: −log10 of the molar value.
Reported property: pEC50

>>> result_value("CN1C(=O)C(Cc2c[nH]c3ccccc23)NC1=S (stereo unspecified)")
6.74
